Assay system: UDP-3-O-acyl-N-acetylglucosamine deacetylase (Escherichia coli K-12, UniProt P0A725, C63A)
Sequence (P0A725 whole entry C63A): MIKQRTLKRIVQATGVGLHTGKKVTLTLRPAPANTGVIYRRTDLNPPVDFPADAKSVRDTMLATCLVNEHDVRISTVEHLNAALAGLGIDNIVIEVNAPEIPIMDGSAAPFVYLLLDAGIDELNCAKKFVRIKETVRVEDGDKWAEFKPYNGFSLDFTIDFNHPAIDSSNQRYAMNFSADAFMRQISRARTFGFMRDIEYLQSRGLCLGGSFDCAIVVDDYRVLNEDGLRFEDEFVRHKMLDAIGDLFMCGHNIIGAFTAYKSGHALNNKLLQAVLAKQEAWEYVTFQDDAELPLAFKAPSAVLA
Experiment summary: Inhibition of Escherichia coli LpxC C63A mutant using UDP-3-O-[(R)-3-hydroxymyristoyl]-N-acetylglucosamine substrate after 30 mins by fluorescence-bsed microplate assay
pIC50: −log10 of the molar value.
Property measured: pIC50

1. O=C(NO)[C@H](CO)O[C@H](CO)c1ccc(C#Cc2ccc(CN3CCOCC3)cc2)cc1
5.59
2. O=C(NO)[C@H](CO)OCc1ccc(C#Cc2ccc(CN3CCOCC3)cc2)cc1
5.55
3. O=C(NO)[C@@H](CO)OCc1ccc(C#Cc2ccccc2)cc1
5.73
4. O=C(NO)[C@@H](CO)OCc1ccc(C#Cc2ccc(CN3CCOCC3)cc2)cc1
5.78
5. O=C(CO[C@@H](CO)c1ccc(C#Cc2ccc(CN3CCOCC3)cc2)cc1)NO
3.70
6. O=C(CO[C@H](CO)c1ccc(C#Cc2ccc(CN3CCOCC3)cc2)cc1)NO
6.16
7. O=C(NO)[C@H](CO)OCc1ccc(C#Cc2ccccc2)cc1
5.71
8. O=C(CO[C@H](CO)c1ccc(C#Cc2ccccc2)cc1)NO
6.32
9. O=C(CO[C@@H](CO)c1ccc(C#Cc2ccccc2)cc1)NO
4.50
10. O=C(COCc1ccc(C#Cc2ccc(CN3CCOCC3)cc2)cc1)NO
4.98

###

Assay system: UDP-3-O-acyl-N-acetylglucosamine deacetylase (Escherichia coli K-12, UniProt P0A725, C63A)
Experiment summary: Inhibition of Escherichia coli LpxC C63A mutant using UDP-3-O-[(R)-3-hydroxymyristoyl]-N-acetylglucosamine substrate after 30 mins by fluorescence-bsed microplate assay
pKi: −log10 of the molar value.
Property measured: pKi

1) O=C(NO)[C@H](CO)OCc1ccc(C#Cc2ccc(CN3CCOCC3)cc2)cc1
6.41
2) O=C(CO[C@@H](CO)c1ccc(C#Cc2ccc(CN3CCOCC3)cc2)cc1)NO
4.56
3) O=C(CO[C@H](CO)c1ccc(C#Cc2ccc(CN3CCOCC3)cc2)cc1)NO
7.02
4) O=C(COCc1ccc(C#Cc2ccc(CN3CCOCC3)cc2)cc1)NO
5.84
5) O=C(CO[C@H](CO)c1ccc(C#Cc2ccccc2)cc1)NO
7.18
6) O=C(NO)[C@H](CO)O[C@H](CO)c1ccc(C#Cc2ccc(CN3CCOCC3)cc2)cc1
6.44
7) O=C(NO)[C@@H](CO)OCc1ccc(C#Cc2ccc(CN3CCOCC3)cc2)cc1
6.64
8) O=C(NO)[C@H](CO)OCc1ccc(C#Cc2ccccc2)cc1
6.57
9) O=C(NO)[C@@H](CO)OCc1ccc(C#Cc2ccccc2)cc1
6.59
10) O=C(CO[C@@H](CO)c1ccc(C#Cc2ccccc2)cc1)NO
5.36
